FYI, the data here is from patent US12077503B2.

system: ryegrass, Italian (Italian ryegrass, Lolium multiflorum); experiment: Test A preemergence; format: in vivo; conditions: Lolium multiflorum, pre-emergence, 240 h, 500 g ai/ha, Preemergence, visual injury vs untreated controls after approximately 10 d; read-out: Ryegrass, Italian plant response rating (0 to 100 scale where 0 is no effect and 100 is complete control)
Quick rule: pest or weed control at 500 g/ha of at least 40% means fulfilled, below that means not fulfilled.

Confirm if pest or weed control at 500 g/ha reported for the molecule Cc1cc(F)cc([C@H]2CNC(=O)[C@@H]2C(=O)Nc2ccc(F)c(F)c2F)c1 is 40% or above.
fulfilled

Quick check, pest or weed control at 500 g/ha >= 40%? CN1C[C@H](c2cccc(C3CC3)c2)[C@@H](C(=O)Nc2ccc(F)cc2F)C1=O
fulfilled

Determine whether measured pest or weed control at 500 g/ha meets or exceeds 40% for CSc1ccccc1NC(=O)[C@H]1C(=O)N(C)C[C@@H]1c1cccc(COC(F)F)c1
not fulfilled

// inclusive: pest or weed control at 500 g/ha at least 40%? input: CC(C)c1cccc([C@H]2CN(C)C(=O)[C@@H]2C(=O)Nc2ccccc2F)c1
fulfilled

Has CCOc1ccc([C@H]2CNC(=O)[C@@H]2C(=O)Nc2ccc(F)cc2F)cc1 a recorded pest or weed control at 500 g/ha greater than or equal to 40%?
not fulfilled

Given the entry CN1C[C@H](c2cc(F)c(F)c(F)c2)[C@@H](C(=O)Nc2ccccc2F)C1=O , answer whether its pest or weed control at 500 g/ha meets or surpasses 40%.
fulfilled

Hello, I need to know if COc1ccc([C@H]2CN(C)C(=O)[C@@H]2C(=O)Nc2cccc(F)c2F)cc1OC has measured pest or weed control at 500 g/ha not below 40%. Thanks!
fulfilled

API: above_or_equal(metric=pest or weed control at 500 g/ha, cutoff=40%) for item CCOc1ccc([C@H]2CN(C)C(=O)[C@@H]2C(=O)Nc2ccc(F)cc2F)cc1
not fulfilled

Determine whether measured pest or weed control at 500 g/ha meets or exceeds 40% for COc1ccc([C@H]2CN(C)C(=O)[C@@H]2C(=O)Nc2ccccc2SC)cc1OC
not fulfilled

Decide: pest or weed control at 500 g/ha of Cc1cc(F)cc([C@H]2CN(C)C(=O)[C@@H]2C(=O)Nc2ccccc2F)c1 >= 40%?
fulfilled

Evaluate CSc1ccccc1NC(=O)[C@H]1C(=O)NC[C@@H]1c1cccc2c1OC(F)(F)O2 : pest or weed control at 500 g/ha at minimum 40%?
not fulfilled

State whether the measured pest or weed control at 500 g/ha reaches 40%, counting equality as reaching it, for CN1CC(c2cccc(I)c2)C(C(=O)Nc2ccccc2F)C1=O (stereo not drawn)
fulfilled

Would you say CN1C[C@H](c2cc(F)cc(F)c2)[C@@H](C(=O)Nc2ncccc2F)C1=O shows pest or weed control at 500 g/ha at minimum 40%?
not fulfilled
